Where these numbers come from: patent US20220403001A1

experiment: Plasma PK of Tadalafil and Vardenafil after a single oral dose (LC/MS/MS); type: in vivo, mice; conditions: mouse, NSG mice, single oral dose 30 mg/kg, 24 hours post dose, read-out: Plasma levels
QUANTITY_NAME: concentration at 24 h (nM)
Number only, in nM; omit the unit.

[in] Sample `CN1CC(=O)N2[C@H](c3ccc4c(c3)OCO4)c3[nH]c4ccccc4c3C[C@@H]2C1=O` — what was its concentration at 24 h?
[out] 0

====

assay: Plasma PK of Tadalafil and Vardenafil after a single oral dose (LC/MS/MS); assay type: in vivo, mice; conditions: mouse, NSG mice, single oral dose 100 mg/kg, 8 hours post dose, read-out: Plasma levels
QUANTITY_NAME: concentration at 8 h
Hi, when you answer, please include the unit after the number. Thanks!

[in] Given `CN1CC(=O)N2[C@H](c3ccc4c(c3)OCO4)c3[nH]c4ccccc4c3C[C@@H]2C1=O` , state its recorded concentration at 8 h.
[out] 13.7 µM

====

test: Plasma PK of Tadalafil and Vardenafil after a single oral dose (LC/MS/MS); assay type: in vivo, mice; settings: mouse, CD-1 mice, single oral dose 100 mg/kg, 2 hours post dose, read-out: Plasma levels
QUANTITY_NAME: concentration at 2 h (µM)
State just the number; it will be interpreted in µM.

[in] Recorded concentration at 2 h for `CCCc1nc(C)c2c(=O)[nH]c(-c3cc(S(=O)(=O)N4CCN(CC)CC4)ccc3OCC)nn12` , please?
[out] 3.04

====

assay: Plasma PK of Tadalafil and Vardenafil after a single oral dose (LC/MS/MS); type: in vivo, mice; details: mouse, NSG mice, single oral dose 30 mg/kg, 12 hours post dose, read-out: Plasma levels
QUANTITY_NAME: concentration at 12 h
Don't forget the unit after the number, please.

[in] Recorded concentration at 12 h for CN1CC(=O)N2[C@H](c3ccc4c(c3)OCO4)c3[nH]c4ccccc4c3C[C@@H]2C1=O [Tadalafil] , please?
[out] 500 nM

====

experiment: Plasma PK of Tadalafil and Vardenafil after a single oral dose (LC/MS/MS); format: in vivo, mice; conditions: mouse, NSG mice, single oral dose 100 mg/kg, 4 hours post dose, read-out: Plasma levels
QUANTITY_NAME: concentration at 4 h
Please provide the amount together with its unit, number first.

[in] I have this molecule here, CN1CC(=O)N2[C@H](c3ccc4c(c3)OCO4)c3[nH]c4ccccc4c3C[C@@H]2C1=O [Tadalafil] , and I need its recorded concentration at 4 h.
[out] 34.8 µM

====

assay: Plasma PK of Tadalafil and Vardenafil after a single oral dose (LC/MS/MS); format: in vivo, mice; conditions: mouse, NSG mice, single oral dose 100 mg/kg, 16 hours post dose, read-out: Plasma levels
QUANTITY_NAME: concentration at 16 h (nM)
Numbers only here, please. The scale is nM.

[in] Name the recorded concentration at 16 h for `CN1CC(=O)N2[C@H](c3ccc4c(c3)OCO4)c3[nH]c4ccccc4c3C[C@@H]2C1=O` .
[out] 1500

====

assay: Plasma PK of Tadalafil and Vardenafil after a single oral dose (LC/MS/MS); type: in vivo, mice; settings: mouse, NSG mice, single oral dose 10 mg/kg, 2 hours post dose, read-out: Plasma levels
QUANTITY_NAME: concentration at 2 h (µM)
Numbers only here, please. The scale is µM.

[in] May I ask what concentration at 2 h has been recorded for `CN1CC(=O)N2[C@H](c3ccc4c(c3)OCO4)c3[nH]c4ccccc4c3C[C@@H]2C1=O` ?
[out] 5.4
